test system: M19-MEL; experiment: NCI tumour cell line growth inhibition, 48 h
The source made the active and inactive calls. Cut-off read from the data, not from the text of the source: active = GI50 up to about 1.1 µM and inactive = higher.
reported-property: GI50

Here are 5 compounds together with their reported answers.
1) Cc1cc(-c2ccccc2)nc(Nc2cc3ccccc3[nH]2)n1 :: > 100 µM (inactive)
2) CCC(C)CN1C(=O)NC(C)(Cc2ccccc2)C1=O (stereo unspecified) :: > 100 µM (inactive)
3) N=C(c1ccccc1)N(O)C1CCCCC1 :: > 100 µM (inactive)
4) COc1ccc(/C(Cl)=C(\C=O)c2ccc(Cl)c(Cl)c2)cc1OC :: 8.11 µM (inactive)
5) CC/C(=C(\c1ccccc1)c1ccc(OCC[N+](C)(C)C)cc1)c1ccccc1 [TAMOXIFEN METHYL IODIDE] :: 11.6 µM (inactive)

Data point: CN1c2ccccc2NC(CC(=O)O)C2CC=CN21 (stereo unspecified) ; GI50 = > 100 µM (inactive)

----------
test system: HT-29; assay: NCI tumour cell line growth inhibition, 48 h
Activity calls are given as the source filed them. Cut-off read from the data, not from the text of the source: active = GI50 up to about 1.1 µM and inactive = higher.
Attribute: GI50

Here are 5 compounds together with their reported answers.
1) OCc1cn(Cc2ccccc2)c2ccccc12 :: 1.71 µM (inactive)
2) Nc1ccccc1/C(O)=C1/CCOC1=O :: > 100 µM (inactive)
3) CC(C)(C)OC(=O)C#CC[C@H]1CCCC1/C=C/C(O)=C1/C(=O)NC(CCCNC(=O)OC(C)(C)C)C1=O (stereo partly specified) :: 40.1 µM (inactive)
4) CCCCc1ccc(-n2sc3ncc([N+](=O)[O-])cc3c2=O)cc1 :: 13.8 µM (inactive)
5) Cc1cc2c(cc1C)N1C(Cl)=C3CCCCC3=C(C#N)C1N2 (stereo unspecified) :: 2.55 µM (inactive)

Hey, HT-29 data for "COc1cc(CC(=O)c2cc3c(cc2-c2ccccc2)OCO3)cc(OC)c1OC" : GI50 came out at > 100 µM (inactive)

Hey, HT-29 data for "O=C(COc1ccc(/C=C/C(=O)c2ccc(Cl)cc2)cc1)Nc1c(Cl)cccc1Cl" : GI50 came out at > 100 µM (inactive)

----------
test system: EKVX; assay: NCI tumour cell line growth inhibition, 48 h
Activity calls are given as the source filed them. No stated cut-off is given here; in the data, active = GI50 up to about 1.1 µM and inactive = higher.
API: response.call in true = active, false = inactive

The examples below pair each entry with its known result.
1) O=C(CC(=O)N1N=C(c2ccccc2)C(/N=N/c2ccc(C(=O)O)cc2)C1=O)Nc1ccc(F)cc1 (stereo not drawn) :: false
2) CCC(C)CN1C(=O)NC(C)(Cc2ccccc2)C1=O (stereo not drawn) :: false
3) COc1ccc(Cc2cc3c(cc2OCC(=O)O)OCO3)cc1 :: false
4) CCOC(=O)c1c(CN2CCOCC2)n(Cc2ccccc2)c2c1cc(O)c1nc(C)c(C)nc12 :: false
5) Sc1nnc(COc2ccc(Cl)cc2)n1-c1ccccc1 :: false
6) [N-]=[N+]=Nc1ccccc1-[n+]1noc([O-])c1Br :: false

Which outcome was assigned to "CCCCSC(=CC(=O)c1cccc(C(=O)C=C(SCCCC)SCCCC)n1)SCCCC" in this test?
false

Which outcome was assigned to COc1cc2c(c(OC)c1OC)-c1ccc(SC)cc1C(O)CC2 (stereo not drawn) in this test?
false

Which outcome was assigned to "CC1=C(C)C(=O)c2c(cc3c4ccccc4ccn23)C1=O" in this test?
false

Which outcome was assigned to CC(=O)N1C(Nc2cccc3nc(C)ccc23)CCN1c1ccccc1 (stereo not drawn) in this test?
false

Which outcome was assigned to "O=C1Nc2ccc(Br)cc2/C1=C/C(=O)c1ccccc1" in this test?
false

Where do the numbers come from? From ChEMBL document CHEMBL1201862.
